EXPERIMENTAL PROTOCOL: Volume of distribution in Sprague-Dawley rat at 1 mg/kg, iv
Assay type: ADME, organism-based
Set-up: dose 1 mg/kg, route intravenous
RECORDED CONDITIONS: in vivo

- SMILES STRING: "CC1=C2C[C@H]3[C@@H](CC[C@@H]4C[C@H](NS(C)(=O)=O)CC[C@@]43C)[C@@H]2CC[C@@]2(C1)O[C@@H]1C[C@H](C)CN[C@H]1[C@H]2C"
  Vd: "30 L/kg"
- SMILES STRING: "CC1=C2C[C@H]3[C@@H](CC[C@@H]4Cc5[nH]ncc5C[C@@]43C)[C@@H]2CC[C@@]2(C1)O[C@@H]1C[C@H](C)CN[C@H]1[C@H]2C"
  Vd: "13 L/kg"
- SMILES STRING: "CC1=C2C[C@H]3[C@@H](CC[C@@H]4CNC(=O)CC[C@@]43C)[C@@H]2CC[C@@]2(C1)O[C@@H]1C[C@H](C)CN[C@H]1[C@H]2C"
  Vd: "4.9 L/kg"
- SMILES STRING: "CC1=C2C[C@H]3[C@@H](CCC4=CC(=O)CC[C@@]43C)[C@@H]2CC[C@@]2(C1)O[C@@H]1C[C@H](C)CN[C@H]1[C@H]2C"
  Vd: "28 L/kg"

====

EXPERIMENTAL PROTOCOL: in vitro
RECORDED CONDITIONS: human, microsomes
Description: Metabolic stability in human liver microsomes assessed as half life at 500 nM
Threshold check on half-life at 0.5 µM: strictly below 1 h is condition met; on or above 1 h is condition not met.

- MOLECULE: "CC1=C2C[C@H]3[C@@H](CC[C@@H]4CC(=O)CC[C@@]43C)[C@@H]2CC[C@@]2(C1)O[C@@H]1C[C@H](C)CN[C@H]1[C@H]2C"
  ASSIGNED CATEGORY: "condition not met"
- MOLECULE: "CC1=C2C[C@H]3[C@@H](CCC4=CC(=O)CC[C@@]43C)[C@@H]2CC[C@@]2(C1)O[C@@H]1C[C@H](C)CN[C@H]1[C@H]2C"
  ASSIGNED CATEGORY: "condition not met"
- MOLECULE: "CO[C@H]1CC[C@@]2(C)[C@H](CC[C@H]3[C@@H]4CC[C@@]5(CC(C)=C4C[C@@H]32)O[C@@H]2C[C@H](C)CN[C@H]2[C@H]5C)C1"
  ASSIGNED CATEGORY: "condition not met"
- MOLECULE: "CC1=C2C[C@H]3[C@@H](CC[C@@H]4C[C@@H](NS(C)(=O)=O)CC[C@@]43C)[C@@H]2CC[C@@]2(C1)O[C@@H]1C[C@H](C)CN[C@H]1[C@H]2C"
  ASSIGNED CATEGORY: "condition met"
- MOLECULE: "CC1=C2C[C@H]3[C@@H](CC[C@@H]4C/C(=N/O)CC[C@@]43C)[C@@H]2CC[C@@]2(C1)O[C@@H]1C[C@H](C)CN[C@H]1[C@H]2C"
  ASSIGNED CATEGORY: "condition met"
- MOLECULE: "CC1=C2C[C@H]3[C@@H](CC[C@@H]4c5c[nH]nc5CC[C@@]43C)[C@@H]2CC[C@@]2(C1)O[C@@H]1C[C@H](C)CN[C@H]1[C@H]2C"
  ASSIGNED CATEGORY: "condition met"
- MOLECULE: "CC1=C2C[C@H]3[C@@H](CC[C@@H]4C[C@H](NS(C)(=O)=O)CC[C@@]43C)[C@@H]2CC[C@@]2(C1)O[C@@H]1C[C@H](C)CN[C@H]1[C@H]2C [PATIDEGIB]"
  ASSIGNED CATEGORY: "condition not met"
- MOLECULE: "CO[C@@H]1CC[C@@]2(C)[C@H](CC[C@H]3[C@@H]4CC[C@@]5(CC(C)=C4C[C@@H]32)O[C@@H]2C[C@H](C)CN[C@H]2[C@H]5C)C1"
  ASSIGNED CATEGORY: "condition met"
- MOLECULE: "CC1=C2C[C@H]3[C@@H](CC[C@H]4CC(=O)CC[C@@]43C)[C@@H]2CC[C@@]2(C1)O[C@@H]1C[C@H](C)CN[C@H]1[C@H]2C"
  ASSIGNED CATEGORY: "condition not met"
- MOLECULE: "CC1=C2C[C@H]3[C@@H](CC[C@@H]4CN(C)C(=O)CC[C@@]43C)[C@@H]2CC[C@@]2(C1)O[C@@H]1C[C@H](C)CN[C@H]1[C@H]2C"
  ASSIGNED CATEGORY: "condition met"

====

EXPERIMENTAL PROTOCOL: Toxicity in po dosed Ptc+/- Hic+/- mouse B837Tx cells allografted NOD/SCID mouse assessed as maximum tolerated dose after 5 days
Format: organism-based
RECORDED CONDITIONS: in vivo
The entries below come with measured MTD at 120 h values attached.

- SMILES STRING: "CC1=C2C[C@H]3[C@@H](CC[C@@H]4C[C@H](NS(C)(=O)=O)CC[C@@]43C)[C@@H]2CC[C@@]2(C1)O[C@@H]1C[C@H](C)CN[C@H]1[C@H]2C"
  UNIT TAG: "mg/kg"
  MTD at 120 h: 40
- SMILES STRING: "CC1=C2C[C@H]3[C@@H](CCC4=CC(=O)CC[C@@]43C)[C@@H]2CC[C@@]2(C1)O[C@@H]1C[C@H](C)CN[C@H]1[C@H]2C"
  UNIT TAG: "mg/kg"
  MTD at 120 h: 25
- SMILES STRING: "CC1=C2C[C@H]3[C@@H](CC[C@@H]4Cc5[nH]ncc5C[C@@]43C)[C@@H]2CC[C@@]2(C1)O[C@@H]1C[C@H](C)CN[C@H]1[C@H]2C"
  UNIT TAG: "mg/kg"
  MTD at 120 h: 80
- SMILES STRING: "CC1=C2C[C@H]3[C@@H](CC[C@@H]4CNC(=O)CC[C@@]43C)[C@@H]2CC[C@@]2(C1)O[C@@H]1C[C@H](C)CN[C@H]1[C@H]2C"
  UNIT TAG: "mg/kg"
  MTD at 120 h: 30

====

EXPERIMENTAL PROTOCOL: Oral bioavailability in Sprague-Dawley rat at 5 mg/kg
Assay type: ADME, organism-based
RECORDED CONDITIONS: in vivo
The entries below come with measured bioavailability values attached.

- COMPOUND: "CC1=C2C[C@H]3[C@@H](CC[C@@H]4C[C@H](NS(C)(=O)=O)CC[C@@]43C)[C@@H]2CC[C@@]2(C1)O[C@@H]1C[C@H](C)CN[C@H]1[C@H]2C [PATIDEGIB]"
  UNIT TAG: "%"
  bioavailability: 100
- COMPOUND: "CC1=C2C[C@H]3[C@@H](CCC4=CC(=O)CC[C@@]43C)[C@@H]2CC[C@@]2(C1)O[C@@H]1C[C@H](C)CN[C@H]1[C@H]2C"
  UNIT TAG: "%"
  bioavailability: 13
- COMPOUND: "CC1=C2C[C@H]3[C@@H](CC[C@@H]4Cc5[nH]ncc5C[C@@]43C)[C@@H]2CC[C@@]2(C1)O[C@@H]1C[C@H](C)CN[C@H]1[C@H]2C"
  UNIT TAG: "%"
  bioavailability: 34
- COMPOUND: "CC1=C2C[C@H]3[C@@H](CC[C@@H]4CNC(=O)CC[C@@]43C)[C@@H]2CC[C@@]2(C1)O[C@@H]1C[C@H](C)CN[C@H]1[C@H]2C"
  UNIT TAG: "%"
  bioavailability: 100

====

EXPERIMENTAL PROTOCOL: in vitro
RECORDED CONDITIONS: human, liver microsomes
The entries below come with measured log10(half-life at 0.5 µM) values attached.
READOUT TYPE: log10(half-life at 0.5 µM) (log10 of the value in h)

- SMILES STRING: "CC1=C2C[C@H]3[C@@H](CC[C@@H]4Cc5nn(C)cc5C[C@@]43C)[C@@H]2CC[C@@]2(C1)O[C@@H]1C[C@H](C)CN[C@H]1[C@H]2C"
  log10(half-life at 0.5 µM): -0.23
- SMILES STRING: "CO/N=C1\\CC[C@@]2(C)[C@H](CC[C@H]3[C@@H]4CC[C@@]5(CC(C)=C4C[C@@H]32)O[C@@H]2C[C@H](C)CN[C@H]2[C@H]5C)C1"
  log10(half-life at 0.5 µM): -0.04
- SMILES STRING: "CC1=C2C[C@H]3[C@@H](CC[C@@H]4C[C@@H](n5ccnn5)CC[C@@]43C)[C@@H]2CC[C@@]2(C1)O[C@@H]1C[C@H](C)CN[C@H]1[C@H]2C"
  log10(half-life at 0.5 µM): 0.07
- SMILES STRING: "CC1=C2C[C@H]3[C@@H](CC[C@@H]4C[C@@H](O)CC[C@@]43C)[C@@H]2CC[C@@]2(C1)O[C@@H]1C[C@H](C)CN[C@H]1[C@H]2C"
  log10(half-life at 0.5 µM): -0.48
- SMILES STRING: "CC1=C2C[C@H]3[C@@H](CC[C@@H]4Cc5n[nH]c(C(F)(F)F)c5C[C@@]43C)[C@@H]2CC[C@@]2(C1)O[C@@H]1C[C@H](C)CN[C@H]1[C@H]2C"
  log10(half-life at 0.5 µM): 0.52
- SMILES STRING: "CC1=C2C[C@H]3[C@@H](CC[C@@H]4Cc5[nH][nH]c(=O)c5C[C@@]43C)[C@@H]2CC[C@@]2(C1)O[C@@H]1C[C@H](C)CN[C@H]1[C@H]2C"
  log10(half-life at 0.5 µM): 0.22
- SMILES STRING: "CC1=C2C[C@H]3[C@@H](CC[C@@H]4Cc5nonc5C[C@@]43C)[C@@H]2CC[C@@]2(C1)O[C@@H]1C[C@H](C)CN[C@H]1[C@H]2C"
  log10(half-life at 0.5 µM): -0.88
- SMILES STRING: "CC1=C2C[C@H]3[C@@H](CC[C@@H]4Cc5nn(S(C)(=O)=O)cc5C[C@@]43C)[C@@H]2CC[C@@]2(C1)O[C@@H]1C[C@H](C)CN[C@H]1[C@H]2C"
  log10(half-life at 0.5 µM): 0.48
- SMILES STRING: "CC1=C2C[C@H]3[C@@H](CC[C@@H]4Cc5nc(C)sc5C[C@@]43C)[C@@H]2CC[C@@]2(C1)O[C@@H]1C[C@H](C)CN[C@H]1[C@H]2C"
  log10(half-life at 0.5 µM): 0.22
- SMILES STRING: "CC1=C2C[C@H]3[C@@H](CC[C@@H]4C[C@H](O)CC[C@@]43C)[C@@H]2CC[C@@]2(C1)O[C@@H]1C[C@H](C)CN[C@H]1[C@H]2C"
  log10(half-life at 0.5 µM): -0.18

Cited source: ChEMBL document CHEMBL1158454
